- measuredTarget: Glycogen phosphorylase, liver form (Homo sapiens, UniProt P06737)
- Sequence (P06737 whole entry): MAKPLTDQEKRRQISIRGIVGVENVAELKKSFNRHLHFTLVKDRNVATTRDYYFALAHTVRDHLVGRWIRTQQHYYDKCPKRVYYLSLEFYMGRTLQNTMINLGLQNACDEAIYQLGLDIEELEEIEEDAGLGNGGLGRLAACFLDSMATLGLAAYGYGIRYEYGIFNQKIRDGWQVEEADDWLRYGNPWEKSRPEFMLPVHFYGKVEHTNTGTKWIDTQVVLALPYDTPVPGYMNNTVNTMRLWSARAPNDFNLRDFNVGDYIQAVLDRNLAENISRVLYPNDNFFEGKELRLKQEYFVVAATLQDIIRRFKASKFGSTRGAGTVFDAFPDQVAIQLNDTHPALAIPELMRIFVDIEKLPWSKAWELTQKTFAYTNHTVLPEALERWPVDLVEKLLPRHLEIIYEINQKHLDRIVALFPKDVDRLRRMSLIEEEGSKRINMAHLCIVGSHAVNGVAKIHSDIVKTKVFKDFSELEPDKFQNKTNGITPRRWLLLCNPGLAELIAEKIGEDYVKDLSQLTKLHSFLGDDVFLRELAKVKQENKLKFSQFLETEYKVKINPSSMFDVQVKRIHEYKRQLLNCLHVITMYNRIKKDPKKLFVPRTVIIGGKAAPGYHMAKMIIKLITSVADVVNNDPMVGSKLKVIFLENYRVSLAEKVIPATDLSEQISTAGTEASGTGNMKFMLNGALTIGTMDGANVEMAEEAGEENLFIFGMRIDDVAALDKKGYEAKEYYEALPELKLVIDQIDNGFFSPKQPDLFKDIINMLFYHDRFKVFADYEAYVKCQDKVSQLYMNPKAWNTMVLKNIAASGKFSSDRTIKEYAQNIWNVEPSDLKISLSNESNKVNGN
- assayOverview: Inhibitory concentration against glycogen phosphorylase
measuredProperty: IC50 (nM)

>>> reportedvalue("O=C(NCC(=O)N(CCO)C1CCOCC1)c1cc2cc(Cl)ccc2[nH]1")
250
>>> reportedvalue("CN1CCC(N(C)C(=O)CNC(=O)c2cc3cc(Cl)ccc3[nH]2)C1 (stereo unspecified)")
9600
>>> reportedvalue("COCC(N)CN(C(=O)CNC(=O)c1cc2cc(Cl)ccc2[nH]1)C1CCCC1 (stereo unspecified)")
1200
>>> reportedvalue("CN(C)C(=O)CN(C(=O)CNC(=O)c1cc2cc(Cl)ccc2[nH]1)C1CCCC1")
410
>>> reportedvalue("O=C(NCC(=O)N(CCO)CC1CCCO1)c1cc2cc(Cl)ccc2[nH]1 (stereo unspecified)")
550

(a) CC(C)(O)CN(C(=O)CNC(=O)c1cc2cc(Cl)ccc2[nH]1)C1CCCC1
(b) O=C(NCC(=O)N(CCCCO)C1CCCC1)c1cc2cc(Cl)ccc2[nH]1
(c) NCCN(C(=O)CNC(=O)c1cc2cc(Cl)ccc2[nH]1)C1CCCC1
Input line: Arrange by IC50, high to low. Return value: ordered labels per request.
Output line: b, c, a
